Experiment: chemical genetic growth profiling, strain panel (AID 1159580);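 also: tested at 20 µM; growth read once vehicle control cultures reached saturation at 30 °C; 1 = growth at the plate median or of vehicle wells; lower values mean less growth of the strain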
Conditions: S. cerevisiae deletion strains, growth OD, locus YPL051W, strain arl3, hits give low values
Hit rate of the full screen: of about 5,500 compounds, about 2,000 (36%) were called active. Not shown: some 18% with an inconclusive outcome. This is one part of the list.
quantity.name: normalized growth
The reply should be a number, written without any unit.

>>> meas_value("CCOC(=O)n1ccn(C)c1=S")
1.06
>>> meas_value("NCCCS(=O)(=O)O")
1.01
>>> meas_value("O=S(=O)(O)CCS")
0.991

Incoming: Recorded normalized growth for CCN(CC)C(=O)N1CCN(C)CC1 , please?
Outgoing: 1

Incoming: Please look up its normalized growth: CCn1cc(C(=O)O)c(=O)c2cc(F)c(N3CCNC(C)C3)c(F)c21 (configuration not stated)
Outgoing: 0.971

Incoming: Entry COc1ccc(C2CNC(=O)C2)cc1OC1CCCC1 (configuration not stated) has what normalized growth?
Outgoing: 1

Incoming: Which normalized growth reading was recorded for the compound Clc1ccc(C(OCCN2CCCCC2)c2ccccc2)cc1 (configuration not stated) ?
Outgoing: 1.01

* * *

Assay: chemical genetic growth profiling, strain panel (AID 1159580)
Conditions: S. cerevisiae deletion strains, growth OD, locus YBR160W, strain CDC28, hits give low values
Hit rate of the full screen: of about 5,500 compounds, about 2,000 (36%) were called active. About 18% were inconclusive and are not listed. The list shows a part of the results.
# normalized growth annotations
Just the number.

>>> meas_value("N/C(CCSc1ccc(Cl)cc1)=N/OC(=O)Nc1ccc(Cl)cc1")
0.978

Now for the molecule whose normalized growth we want.
Incoming: Which normalized growth is listed for CCCN(CCC)C(=S)NC(=O)c1cccc([N+](=O)[O-])c1 ?
Outgoing: 0.965

* * *

Test: chemical genetic growth profiling, strain panel (AID 1159580)
Details: S. cerevisiae deletion strains, growth OD, locus YMR205C, strain PFK2 (second series), hits give low values
Screen size: about 5,500 compounds; about 2,000 (36%) were called active. Not shown: some 18% with an inconclusive outcome. Some of the results follow.
quantity.name: normalized growth

Solved entries:
>>> meas_value("N#C/C(=N/Nc1ccc(F)cc1)S(=O)(=O)c1ccc(Cl)cc1")
"0.96 (inactive)"
>>> meas_value("O=C(NCc1ccc(Cl)c(Cl)c1)c1cccnc1OCC(F)(F)F")
"0.958 (inactive)"
>>> meas_value("Cc1c(C(=O)Sc2ccc(F)cc2F)sc2nc(C(F)(F)F)nn12")
"0.101 (active)"
>>> meas_value("O=C(Nc1cccc(C(F)(F)F)c1)c1cncc(C#Cc2ccccc2)c1")
"0.935 (inactive)"
>>> meas_value("COc1cccc(C2CCN(C(=O)c3cccc4ccccc34)CC2)c1")
"0.914 (inactive)"
>>> meas_value("CC(C)(C)c1ccc(N/N=C(\\C#N)C(N)=O)cc1")
"0.0978 (active)"

Incoming: I have this compound here, COc1cc(Cl)ccc1N/N=C(/C#N)C(N)=O , and I need its recorded normalized growth.
Outgoing: 0.104 (active)

Incoming: Give its normalized growth value. Item: CCOC(=O)c1ccc2nc(N=CNO)sc2c1
Outgoing: 0.931 (inactive)

Incoming: Please give the measured normalized growth for this compound: N#C/C(=N/Nc1ccc(F)cc1)C(=O)c1ccccc1
Outgoing: 0.821 (inactive)

Incoming: Please look up its normalized growth: Cc1nn(C)c(C(=O)Sc2ccc(OC(F)(F)F)cc2)c1[N+](=O)[O-]
Outgoing: 0.965 (inactive)

Incoming: Fill blank: measured normalized growth of the compound O=C(ON=C1CCCCC1)c1ccc([N+](=O)[O-])cc1 is ____.
Outgoing: 0.876 (inactive)

* * *

Assay: chemical genetic growth profiling, strain panel (AID 1159580);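 also: tested at 20 µM; growth read once vehicle control cultures reached saturation at 30 °C; 1 = growth at the plate median or of vehicle wells; lower values mean less growth of the strain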
Details: S. cerevisiae deletion strains, growth OD, locus YKL203C, strain TOR2, hits give low values
Screen size: about 5,500 compounds; about 2,000 (36%) were called active. About 18% were inconclusive and are not listed. The list shows a part of the results.
quantity.name: normalized growth
Could you respond with only the numeric value?

>>> meas_value("COc1ccc(C(CC(=O)c2ccccc2)Sc2ccccc2N)cc1OC (stereo not given)")
0.99

Incoming: Which normalized growth reading was recorded for the compound O=C(Oc1cccc2[nH]ccc12)c1ccc(C(F)(F)F)cc1 ?
Outgoing: 0.831

Incoming: What value of measured normalized growth is listed for O=[N+]([O-])c1ccc(ON=C2CCCCC2)c([N+](=O)[O-])c1 ?
Outgoing: 0.797

Incoming: Request the reported normalized growth associated with COc1cccc(C2CCN(C(=O)c3cccc4ccccc34)CC2)c1
Outgoing: 0.978

Incoming: Endpoint output: normalized growth of CCOC(=O)C1C(c2c(F)cccc2Cl)C(C(=O)OCC)C(O)(C(F)(F)F)NC1(O)C(F)(F)F (stereo not given) . Value?
Outgoing: 1.06

* * *

Experiment: chemical genetic growth profiling, strain panel (AID 1159580);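 also: tested at 20 µM; growth read once vehicle control cultures reached saturation at 30 °C; 1 = growth at the plate median or of vehicle wells; lower values mean less growth of the strain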
Settings: S. cerevisiae deletion strains, growth OD, locus YMR307W, strain GAS1, hits give low values
Among all 5,500 compounds or so, about 2,000 (36%) were called active. Not shown: some 18% with an inconclusive outcome. This is one part of the list.
Classification by normalized growth | ranges: bottom bin (below 0.9), middle bin (0.9 to below 1), top bin (1 or more)

Consider the worked cases shown below.
>>> label("CCC1(O)CC(OC2CC(N(C)C)C(OC3CC(O)C(OC4CCC(=O)C(C)O4)C(C)O3)C(C)O2)c2c(cc3c(c2O)C(=O)c2c(O)cccc2C3=O)C1C(=O)OC (centres undefined)")
"bottom bin"
>>> label("COc1ccc(C(=O)CC(=O)O)c2c1C=CC(C)(C)O2")
"middle bin"
>>> label("C=CCc1ccc(OC(=O)c2ccccc2)c(OC)c1")
"top bin"
>>> label("CC[C@H]1OC(=O)[C@H](C)[C@@H](O[C@H]2C[C@@](C)(OC)[C@@H](O)[C@H](C)O2)[C@H](C)[C@@H](O[C@@H]2O[C@H](C)C[C@H](N(C)C)[C@H]2O)[C@](C)(OC)C[C@@H](C)C(=O)[C@H](C)[C@@H](O)[C@]1(C)O")
"bottom bin"
>>> label("CCCCCCCCCCCCCCCCCCNC(=O)OCC(COP(=O)([O-])OCC[n+]1ccsc1)OC (centres undefined)")
"middle bin"
>>> label("CCCCCCCCCCCCCCCCCC(=O)NCC(COP(=O)([O-])OCC[N+](C)(C)C)OCC (centres undefined)")
"bottom bin"
>>> label("CC[C@@]1(O)C[C@H](O)c2c(cc3c(c2O)C(=O)c2c(O)ccc(O)c2C3=O)[C@H]1C(=O)OC")
"bottom bin"
>>> label("COc1ccc(C(=O)O)cc1OC")
"top bin"
>>> label("O=C1C(Cl)=C(Cl)C(=O)C(Cl)=C1Cl")
"bottom bin"
>>> label("Cc1[nH]c2ccccc2c1CN(C)C")
"top bin"

Then there is this molecule:
Incoming: Given O=C(O)CCCc1ccccc1 , name the class its normalized growth places it in.
Outgoing: top bin

* * *

Assay: chemical genetic growth profiling, strain panel (AID 1159580);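 also: tested at 20 µM; growth read once vehicle control cultures reached saturation at 30 °C; 1 = growth at the plate median or of vehicle wells; lower values mean less growth of the strain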
Details: S. cerevisiae deletion strains, growth OD, locus YEL061C, strain CIN8, hits give low values
The whole screen tested about 5,500 compounds, of which about 2,000 (36%) were called active. About 18% were inconclusive and are not listed. Some of the results follow.
# normalized growth per entry
Reply with just the number.

Completed entries (count: 6):
>>> meas_value("Nc1nc(=S)c2[nH]cnc2[nH]1")
1.01
>>> meas_value("COc1ccc(-c2coc3cc(O)ccc3c2=O)c(OC)c1O")
0.985
>>> meas_value("CC(C)NCC(O)COc1cccc2[nH]ccc12 (configuration not stated)")
0.997
>>> meas_value("CC[C@H]1OC(=O)[C@H](C)[C@@H](O[C@H]2C[C@@](C)(OC)[C@@H](O)[C@H](C)O2)[C@H](C)[C@@H](O[C@@H]2O[C@H](C)C[C@H](N(C)C)[C@H]2O)[C@](C)(OC)C[C@@H](C)C(=O)[C@H](C)[C@@H](O)[C@]1(C)O")
0.985
>>> meas_value("O=c1c(-c2ccc(O)cc2)coc2cc(O)ccc12")
1.01
>>> meas_value("Cc1ccc(C)n1-c1ccc(C(=O)NNC(=O)c2ccc3nccnc3c2)cc1")
1.01

Incoming: Given the entry CSc1nc2ccccc2[nH]1 , report its measured normalized growth.
Outgoing: 0.936

Incoming: For the compound shown here, C=C1C2CC[C@@]3(C)[C@H](c4ccoc4)OC(=O)C[C@]13O[C@H]1CC(=O)C(C)(C)[C@H](C(OC(C)=O)C(=O)OC)[C@@]21C (some centres not stated) , give the reported normalized growth.
Outgoing: 0.99

Incoming: Which normalized growth value is on record for O=C(NNC(=S)Nc1cccc(Cl)c1)c1ccncc1 ?
Outgoing: 1

Incoming: Returns the measured normalized growth for the input compound. Input: NCCC(O)C(=O)NC1CC(N)C(OC2OC(CN)C(O)C(O)C2N)C(OC2OC(CO)C(O)C2O)C1O (configuration not stated)
Outgoing: 1

Incoming: Given the compound COc1ccc2c(c1)OC1(O)COc3cc(OC)c(OC)cc3C1=C2 (configuration not stated) , what is its reported normalized growth?
Outgoing: 1

Incoming: Form field: reported normalized growth of COc1ccc(-c2coc3cc(OC)ccc3c2=O)cc1
Outgoing: 0.917

Incoming: Need normalized growth, item COc1ccc(-c2coc3cc(O)ccc3c2=O)c(OC)c1
Outgoing: 1

Incoming: I'd like to know its normalized growth. The compound in question is CC[C@@]1(O)C[C@H](O[C@H]2C[C@H](N(C)C)[C@H](O)[C@H](C)O2)c2c(cc3c(c2O)C(=O)c2c(O)ccc(O)c2C3=O)[C@H]1C(=O)OC
Outgoing: 0.071
